Biological target: GABAAR α1 subunit large cytoplasmic loop (AA 334-420) (UniProt P62813)
Sequence (P62813 334-420): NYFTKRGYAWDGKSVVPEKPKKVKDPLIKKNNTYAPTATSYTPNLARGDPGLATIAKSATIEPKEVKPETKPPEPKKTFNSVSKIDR
Experiment: ITC; CB-SH3 titrated against the receptor loops and truncated constructs
assay-metric: Kd (µM)

binder="SH3 domain of collybistin (CB-SH3) (domain or fragment, murine, UniProt Q3UTH8 4-72, looked up, collybistin CB1, murine, residues 4-72, encompassing the complete SH3 domain (residues 8-67); pGEX construct provided by T. Soykan (Brose lab); source: E. coli, purified (GST tag, in-situ thrombin cleavage, Superdex 200 SEC); not shown: GST, N-terminal, cleaved) LITGDSIVSAEAVWDHVTMANRELAFKAGDVIKVLDASNKDWWWGQIDDEEGWFPASFVRLWVNQEDGV" unit_of_measurement=µM quantitative_readout=500
